These measurements were taken from ChEMBL document CHEMBL4513216.

Catalogue of compounds with associated INHIBITION
system: Plasmodium berghei; experiment: Screen against P. berghei liver stage (PbLuc), transformed with Luciferase, at 10uM; type: functional, HepG2; details: tested at 10 uM
In all, about 69,000 compounds went through this assay and about 8,600 (12%) showed an effect of 50% or more. This excerpt belongs to a sample that is enriched for strong results.
Field: numeric (%). Do not append units.

Some solved cases for reference:
CSCC(=O)N[C@H]1CC[C@H](Nc2nccc(-c3cccnc3)n2)C1 ... 49.7
NC(=O)CNC(=O)c1ccc(CNCc2ccc(Cl)cc2Cl)cc1 ... 48.9

// below: INHIBITION requested for another compound
Query: Bench note: what INHIBITION did CCC(=O)N1CCC(Cc2cc(Nc3ncccn3)ncn2)CC1 show?
Response: 49.6

---

tested on: Plasmodium berghei; test: Screen against P. berghei liver stage (PbLuc), transformed with Luciferase, at 10uM; assay type: functional, HepG2; conditions: tested at 10 uM
The whole screen tested about 69,000 compounds, of which about 8,600 (12%) showed an effect of 50% or more. The full list was thinned out, with strong results kept by preference.
Please assign Not met whenever INHIBITION is at or above 10%, and Met whenever it is below.

# example entries with known answers
CC(=O)N1CC2(CCCN2Cc2ccc(Cl)cc2)Cc2ccccc21 (centres undefined) ... Not met
O=C(Nc1nnc(N2CCCCC2)[nH]1)c1cccs1 ... Met
CC(=O)N1CC2(CCCCN2Cc2ccc(Cl)cc2)Cc2ccccc21 (centres undefined) ... Not met
Cn1nnc2c(sc3nc(N4CCOCC4)c4c(c32)CCC4)c1=O ... Not met
Cc1cc(C)n(C2CCCN(C(=O)c3ccc4c(c3)COC4)C2)n1 (centres undefined) ... Not met
CS(=O)(=O)N1Cc2ccccc2CC2(CCN(Cc3ccccn3)C2)C1 (centres undefined) ... Not met

Query: INHIBITION strictly < 10% for this compound? COc1ccc(CC(=O)N2CCCCC2Cn2cc(C)cn2)cc1F (centres undefined)
Response: Met

Query: Then what about the compound CS(=O)(=O)N1Cc2ccccc2CC2(CCN(Cc3ccncc3)C2)C1 (centres undefined) ?
Response: Not met

Query: Then what about the compound O=C(CNC(=O)N1CCc2c([nH]c3ccc(Cl)cc23)C1)NC1CCCC1 ?
Response: Met

Query: Then what about the compound CC(C)CN1C[C@@H]2CN(C(=O)[C@H]3CCCO3)C[C@@H]2C1=O ?
Response: Not met

Query: Then what about the compound O=C(Nc1ccc(Br)cc1F)c1ccc(N2CCCCC2)nn1 ?
Response: Not met

Query: Then what about the compound CNC(=O)Cc1cc2nccc(-c3c(OC)cccc3OC)n2n1 ?
Response: Not met

Query: Then what about the compound COCC(=O)N1CCC2(CC1)CC(=O)N(Cc1ccc(Cl)cc1)C2 ?
Response: Not met

Query: Then what about the compound CN(C)S(=O)(=O)N1CCCCCC1c1cc(-c2ccc(F)cc2)no1 (centres undefined) ?
Response: Not met

---

test system: Plasmodium berghei; test: Screen against P. berghei liver stage (PbLuc), transformed with Luciferase, at 10uM; assay type: functional, HepG2; details: tested at 10 uM
In all, about 69,000 compounds went through this assay and about 8,600 (12%) showed an effect of 50% or more. The list comes from a sample in which strong results are over-represented; it also holds close analogues and randomly drawn compounds.
Please assign false whenever INHIBITION is at or above 30%, and true whenever it is below.

Query: INHIBITION strictly < 30% for this compound? CC(=O)N1CCCN(C(=O)NC(C)Cn2cccn2)CC1 (configuration not stated)
Response: true

Query: Then what about the compound Cc1cc2c(N3CCC(N(C)Cc4nccs4)CC3)ncnc2s1 ?
Response: false

Query: Then what about the compound CN(C)C(=O)N1C[C@@H]2CC[C@H]1CN(C1Cc3ccccc3C1)C2 ?
Response: true

Query: Then what about the compound COc1ccc(CC(=O)NCC(O)c2sccc2C)cc1OC (configuration not stated) ?
Response: false

Query: Then what about the compound Cc1cc(CN2C[C@@H]3CC[C@H]2CN(C2Cc4ccccc4C2)C3)on1 ?
Response: false

Query: Then what about the compound CCc1noc(CN2C[C@@H]3CC[C@H]2CN(C2Cc4ccccc4C2)C3)n1 ?
Response: true

Query: Then what about the compound O=C(c1ccco1)N1CCc2c(COCC3CC3)cncc2C1 ?
Response: true

Query: Then what about the compound Cc1nn(C)c2ncnc(N3CCCC(OCc4cccnc4)C3)c12 (configuration not stated) ?
Response: true

Query: Then what about the compound CC(=O)N1CCC(n2nccc2-c2cnc(N3CCCC3)nc2)CC1 ?
Response: false

Query: Then what about the compound COc1ccc(F)cc1S(=O)(=O)NCC(O)c1sccc1C (configuration not stated) ?
Response: true

Query: Then what about the compound O=C(c1cccnc1)N1CCc2c(COCC3CC3)cncc2C1 ?
Response: true

Query: Then what about the compound CCc1nn(C)c(Cl)c1CN1CCCC2(C1)CN(C)C(=O)O2 (configuration not stated) ?
Response: true

Query: Then what about the compound O=c1cc(CN2CCCC2)nc2n1CCCN(Cc1ccco1)C2 ?
Response: true

Query: Then what about the compound O=S(=O)(Cc1cccc(F)c1)Nc1cc(Cl)ccn1 ?
Response: true

Query: Then what about the compound COCCN1CCOCC12CCN(C(=O)c1c[nH]c3ccccc13)CC2 ?
Response: false

Query: Then what about the compound CC(C)CN1CCn2nc(CNc3ncnc4[nH]cnc34)cc2C1 ?
Response: false

Query: Then what about the compound CN(C)CCOCc1cncc2c1CCN(C1CCOC1)C2 (configuration not stated) ?
Response: true

Query: Then what about the compound O=C(c1ccco1)N1CCC2(CCC(=O)N2Cc2ccccc2)CC1 ?
Response: false

Query: Then what about the compound CC1CCN(C(=O)c2cn(-c3ccc(C(F)(F)F)cn3)nn2)CC1 ?
Response: true

Query: Then what about the compound COc1ccc(S(=O)(=O)NCC(O)c2sccc2C)cc1Cl (configuration not stated) ?
Response: false

---

test system: Plasmodium berghei; assay: Screen against P. berghei liver stage (PbLuc), transformed with Luciferase, at 10uM; assay type: functional, HepG2; details: tested at 10 uM
Hit rate of the full screen: of about 69,000 compounds, about 8,600 (12%) showed an effect of 50% or more. The full list was thinned out, with strong results kept by preference.
Please assign not fulfilled whenever INHIBITION is at or above 30%, and fulfilled whenever it is below.

# example entries with known answers
CC1COCCN1C(=O)Cc1cc(Cl)c2c(c1)OCCO2 (configuration not stated) ... fulfilled
COCCc1noc(CN2CCC(c3ccccc3C(=O)O)C2)n1 (configuration not stated) ... not fulfilled
CN(CC1CC1)c1ccc2ccc(C(=O)NCCc3ccccc3)cn12 ... not fulfilled
COCCO[C@H]1CCN(Cc2ccsc2)[C@H]1Cc1cccnc1 ... fulfilled

Query: INHIBITION strictly < 30% for this molecule? O=C(CCc1ccsc1)NCC1CCN(C2CC2)C1 (configuration not stated)
Response: fulfilled

Query: Then what about the molecule CN1CCN(c2ccc(F)cc2NC(=O)NCCn2ccnc2)CC1 ?
Response: not fulfilled

Query: Then what about the molecule CC(C)N(C)Cc1n[nH]c2c1CCN(C(=O)c1cc[nH]n1)C2 ?
Response: fulfilled

---

Catalogue of compounds with associated INHIBITION
test system: Plasmodium berghei; experiment: Screen against P. berghei liver stage (PbLuc), transformed with Luciferase, at 10uM; format: functional, HepG2; details: tested at 10 uM
About 8,600 (12%) of roughly 69,000 compounds showed an effect of 50% or more. The full list was thinned out, with strong results kept by preference.
Field: numeric (%). Do not append units.

Some solved cases for reference:
Cc1nnc(SCCNc2cc(C3CC3)ncn2)s1 ... 4.52
NS(=O)(=O)N1CCc2ccc(NC(=O)Cc3ccc(F)cc3)cc21 ... 22.9
CCCc1nc(CN2CCN(CC(O)c3ccccc3)CC2)no1 (stereo unspecified) ... 34.5
Cc1nn(C)c2cnn(Cc3ccc(C(=O)NCC4CC4)o3)c12 ... 38.3
Fc1ccc(Br)c(NCc2nnsc2Cl)c1 ... 43.1
CCN(CC)CCNc1ncc(-c2cc(C)no2)c(-c2ccoc2C)n1 ... 33.5
O=C(c1cn(-c2ccc(F)cc2)nn1)N1CCCC(n2cccn2)C1 (stereo unspecified) ... -73.2
COc1ccc(CNC(C)c2ccc(Cl)c(Cl)c2)c(OC)c1OC (stereo unspecified) ... 70.5

// below: INHIBITION requested for another compound
Query: Bench note: what INHIBITION did Cn1cc(C(=O)NCC2CCN(C(=O)NC3CCCCC3)CC2)cn1 show?
Response: -3.7

---

test system: Plasmodium berghei; experiment: Screen against P. berghei liver stage (PbLuc), transformed with Luciferase, at 10uM; format: functional, HepG2; settings: tested at 10 uM
In all, about 69,000 compounds went through this assay and about 8,600 (12%) showed an effect of 50% or more. The list comes from a sample in which strong results are over-represented; it also holds close analogues and randomly drawn compounds.
Please assign 0 whenever INHIBITION is at or above 30%, and 1 whenever it is below.

CCNC(=O)C1CCN(Cc2csc(-c3ccc(C)o3)n2)CC1 ... 1
Cc1nocc1C(=O)N1CCc2c(CN(C)C)nn(C)c2C1 ... 1
Cc1cnc(N2C[C@H]3CN(Cc4csc(C)n4)C(=O)[C@H]3C2)nc1 ... 0

Kindly review the next molecule as well.
Query: INHIBITION strictly < 30% for this molecule? O=C(C1CCC1)N1CCC(C2CCN(Cc3ccc(Cl)cc3)C2)CC1 (centres undefined)
Response: 0
